- study_target: Plasminogen (Homo sapiens, UniProt P00747)
- Sequence (P00747 97-580 limits assumed): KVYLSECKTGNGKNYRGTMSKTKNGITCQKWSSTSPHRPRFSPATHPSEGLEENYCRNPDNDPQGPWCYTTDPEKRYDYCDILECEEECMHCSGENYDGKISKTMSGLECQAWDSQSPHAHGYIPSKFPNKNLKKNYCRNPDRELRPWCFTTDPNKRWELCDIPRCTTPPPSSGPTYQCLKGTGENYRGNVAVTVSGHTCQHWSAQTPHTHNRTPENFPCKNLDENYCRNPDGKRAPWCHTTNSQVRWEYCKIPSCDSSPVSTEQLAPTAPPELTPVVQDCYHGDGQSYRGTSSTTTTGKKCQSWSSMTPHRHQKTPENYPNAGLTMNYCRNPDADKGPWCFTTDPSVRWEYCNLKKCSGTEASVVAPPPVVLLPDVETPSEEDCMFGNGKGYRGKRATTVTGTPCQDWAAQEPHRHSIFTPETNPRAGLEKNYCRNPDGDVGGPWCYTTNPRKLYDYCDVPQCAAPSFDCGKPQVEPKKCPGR
- Sequence (P00747 581-810 limits assumed): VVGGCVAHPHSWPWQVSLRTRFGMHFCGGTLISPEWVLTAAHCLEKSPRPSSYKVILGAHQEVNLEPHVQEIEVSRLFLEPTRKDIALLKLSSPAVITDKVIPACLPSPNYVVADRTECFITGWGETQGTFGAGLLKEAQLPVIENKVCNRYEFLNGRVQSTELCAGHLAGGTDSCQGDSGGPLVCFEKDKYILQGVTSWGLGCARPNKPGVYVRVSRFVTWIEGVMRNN
- test_summary: Inhibitory activity of compound was evaluated against plasmin; not detectable
- condition_context: read-out: IC50
measured_quantity: IC50 (nM)

Cc1nc(C)c(CCCNC(=O)C(Cc2ccc(OC(=O)OCc3ccccc3Br)cc2)NC(=O)[C@H]2CC[C@H](CN)CC2)nc1O (stereo partly specified) :: 740

====

- test_summary: Inhibitory activity of compound was evaluated against thrombin-fibrinogen (Fg); not detectable
- condition_context: read-out: IC50
measured_quantity: IC50

Cc1nc(C)c(CCCNC(=O)C(Cc2ccc(OC(=O)OCc3ccccc3Br)cc2)NC(=O)[C@H]2CC[C@H](CN)CC2)nc1O (stereo partly specified) :: > 250 µM

Every entry's value here was drawn from ChEMBL document CHEMBL1132747.
